Tested on: SW480
Assay: Antiproliferative activity against human SW480 cells after 72 hrs by Alamar Blue assay
Assay type: functional, cell-based
Conditions: SW480, 72 h
recorded-metric: pIC50
Scale explanation: pIC50 corresponds to minus log10 of a concentration expressed in moles per litre.

Known pIC50 results, listed for orientation:
| molecule | experimental-system | pIC50 |
| --- | --- | --- |
| O=C1CC(C(F)(F)F)Cc2nc3ccc(Cl)cc3c(-c3ccccc3)c21 (centres undefined) | SW480 | 4.55 |
| O=C1CC(C(F)(F)F)Cc2nc3ccc(Cl)cc3c(-c3ccccc3Cl)c21 (centres undefined) | SW480 | 4.67 |
| Cc1c2c(nc3ccc(Cl)cc13)CC(C(F)(F)F)CC2=O (centres undefined) | SW480 | 4.82 |

For this molecule ( O=C1CC(C(F)(F)F)Cc2nc3ccc(Br)cc3c(-c3ccccc3F)c21 (centres undefined) ), measured pIC50 is 4.81

---

Overview of reported inhibition at 10 µM across a group of molecules:
Tested on: HCT-116
Test: Growth inhibition of human HCT116 cells at 10 uM relative to control
Format: functional
Write down the numeric answer in % and omit the unit.

For this molecule ( O=C1CC(C(F)(F)F)Cc2nc3ccccc3c(-c3ccccc3)c21 (configuration not stated) ), measured inhibition at 10 µM is 70

For this molecule ( O=C1CC(C(F)(F)F)Cc2nc3ccc(Br)cc3c(-c3ccccc3F)c21 (configuration not stated) ), measured inhibition at 10 µM is 35

For this molecule ( O=C1CC(C(F)(F)F)Cc2nc3ccc(Cl)cc3c(-c3ccccc3)c21 (configuration not stated) ), measured inhibition at 10 µM is 25

For this molecule ( O=C1CC(C(F)(F)F)Cc2nc3c(Br)cc(Br)cc3cc21 (configuration not stated) ), measured inhibition at 10 µM is 64

For this molecule ( O=C1CC(C(F)(F)F)Cc2nc3ccc(Cl)cc3c(-c3ccccc3Cl)c21 (configuration not stated) ), measured inhibition at 10 µM is 38

---

System: HOP-92
Assay: Growth inhibition of human HOP92 cells at 10 uM relative to control
Type: functional
recorded-metric: inhibition at 10 µM

Known inhibition at 10 µM results, listed for orientation:
| compound | recorded-metric | result |
| --- | --- | --- |
| O=C1CC(C(F)(F)F)Cc2nc3ccc(Br)cc3c(-c3ccccc3F)c21 (configuration not stated) | inhibition at 10 µM | 48% |
| O=C1CC(C(F)(F)F)Cc2nc3ccc(Cl)cc3c(-c3ccccc3)c21 (configuration not stated) | inhibition at 10 µM | 37% |
| Cc1c2c(nc3cc4c(cc13)OCO4)CC(C(F)(F)F)CC2=O (configuration not stated) | inhibition at 10 µM | < 20% |
| Cc1c2c(nc3ccc(Cl)cc13)CC(C(F)(F)F)CC2=O (configuration not stated) | inhibition at 10 µM | 58% |
| O=C1CC(C(F)(F)F)Cc2nc3ccccc3c(-c3ccccc3)c21 (configuration not stated) | inhibition at 10 µM | 70% |
| O=C1CC(C(F)(F)F)Cc2nc3ccc(Cl)cc3c(-c3ccccc3Cl)c21 (configuration not stated) | inhibition at 10 µM | 38% |

Field: next compound
For this compound ( O=C1CC(C(F)(F)F)Cc2nc3c(Br)cc(Br)cc3cc21 (configuration not stated) ), measured inhibition at 10 µM is 57%

---

System: CCRF-CEM
Assay: Growth inhibition of human CCRF-CEM cells at 10 uM relative to control
Format: functional
Overview of reported inhibition at 10 µM across a group of compounds:
Write down the numeric answer in % and omit the unit.

| compound | inhibition at 10 µM / % |
| --- | --- |
| O=C1CC(C(F)(F)F)Cc2nc3ccc(Br)cc3c(-c3ccccc3F)c21 (stereo not given) | 28 |

Field: next compound
Considering O=C1CC(C(F)(F)F)Cc2nc3ccc(Cl)cc3c(-c3ccccc3Cl)c21 (stereo not given) , its inhibition at 10 µM with CCRF-CEM was recorded as 60

---

System: A549
Assay: Growth inhibition of human A549 cells at 10 uM relative to control
Assay type: functional
Overview of reported inhibition at 10 µM across a group of molecules:

| molecule | inhibition at 10 µM |
| --- | --- |
| Cc1c2c(nc3ccc(Cl)cc13)CC(C(F)(F)F)CC2=O (stereo not drawn) | < 20% |
| O=C1CC(C(F)(F)F)Cc2nc3ccccc3c(-c3ccccc3)c21 (stereo not drawn) | < 20% |

Field: next molecule
For this molecule ( O=C1CC(C(F)(F)F)Cc2nc3ccc(Br)cc3c(-c3ccccc3F)c21 (stereo not drawn) ), measured inhibition at 10 µM is < 20%

---

System: MOLT-4
Test: Growth inhibition of human MOLT4 cells at 10 uM relative to control
Type: functional
recorded-metric: inhibition at 10 µM

| molecule | recorded-metric | result |
| --- | --- | --- |
| O=C1CC(C(F)(F)F)Cc2nc3ccccc3c(-c3ccccc3)c21 (stereo not drawn) | inhibition at 10 µM | < 20% |

Considering Cc1c2c(nc3cc4c(cc13)OCO4)CC(C(F)(F)F)CC2=O (stereo not drawn) , its inhibition at 10 µM with MOLT-4 was recorded as < 20%

Considering O=C1CC(C(F)(F)F)Cc2nc3ccc(Br)cc3c(-c3ccccc3F)c21 (stereo not drawn) , its inhibition at 10 µM with MOLT-4 was recorded as < 20%

---

Test system: CCRF-CEM
Assay: Growth inhibition of human CCRF-CEM cells at 10 uM relative to control
Type: functional
recorded-metric: inhibition at 10 µM

Known inhibition at 10 µM results, listed for orientation:
| compound | inhibition at 10 µM |
| --- | --- |
| Cc1c2c(nc3cc4c(cc13)OCO4)CC(C(F)(F)F)CC2=O (stereo not drawn) | < 20% |
| O=C1CC(C(F)(F)F)Cc2nc3ccccc3c(-c3ccccc3)c21 (stereo not drawn) | < 20% |

For this compound ( O=C1CC(C(F)(F)F)Cc2nc3ccc(Cl)cc3c(-c3ccccc3)c21 (stereo not drawn) ), measured inhibition at 10 µM is < 20%
